# system tested: T1, corticotropin releasing factor 2 receptor
# T1 sequence (Q13324 whole entry, species assumed, looked up): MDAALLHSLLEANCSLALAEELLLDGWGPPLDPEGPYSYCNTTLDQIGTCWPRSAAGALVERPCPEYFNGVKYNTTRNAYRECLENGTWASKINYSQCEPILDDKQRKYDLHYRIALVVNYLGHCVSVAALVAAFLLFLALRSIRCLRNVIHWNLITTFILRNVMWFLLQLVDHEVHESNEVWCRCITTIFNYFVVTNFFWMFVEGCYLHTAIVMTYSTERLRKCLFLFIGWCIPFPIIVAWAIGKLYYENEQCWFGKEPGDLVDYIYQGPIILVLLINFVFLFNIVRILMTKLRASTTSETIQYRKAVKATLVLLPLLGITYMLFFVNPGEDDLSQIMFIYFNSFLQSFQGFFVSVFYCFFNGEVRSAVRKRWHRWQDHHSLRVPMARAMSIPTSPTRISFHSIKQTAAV
# measurement notes: cell-based or functional assay
Ends that are not written are not given here.
CRF2R Emax % values by entry
Numbers only here, please. The scale is %.

Sample records with CRF2R Emax %:
binder	unit	CRF2R Emax %
ZGPPISIDLPFQLLRKLIEIEKQEKEKQQAANNALLLATI (C-terminal amide) [SEQ ID NO 357]	%	100
ZGPPISIDLPLYLLRKMIEIEKQEKEKQQAANNALLLDTI (C-terminal amide) [SEQ ID NO 244]	%	98
ZGPPISIDLPYQLLRKMIEIEKQEKEKQQAANNARLLAR (C-terminal amide) [SEQ ID NO 288]	%	100

Bench note: what CRF2R Emax % did DNPSLSIDLPYYLLRTLLELARTQSQRERAEQNAIIFASV-NH2 [SEQ ID NO 263] show?
93

Here is the next binder: ZGPPISIDLPLHLLRKMIEIEKQEKEKQQAANNALLLDTI (C-terminal amide) [SEQ ID NO 240]
100

Cool, now ZGPPISIDLPFQLLRKVIEIEKQEKEKQQAANNAELLAEI (C-terminal amide) [SEQ ID NO 272]
100
